src = ChEMBL document CHEMBL1143171

- tested target: Peroxisome proliferator-activated receptor gamma (Homo sapiens)
- Sequence (P37231 whole entry): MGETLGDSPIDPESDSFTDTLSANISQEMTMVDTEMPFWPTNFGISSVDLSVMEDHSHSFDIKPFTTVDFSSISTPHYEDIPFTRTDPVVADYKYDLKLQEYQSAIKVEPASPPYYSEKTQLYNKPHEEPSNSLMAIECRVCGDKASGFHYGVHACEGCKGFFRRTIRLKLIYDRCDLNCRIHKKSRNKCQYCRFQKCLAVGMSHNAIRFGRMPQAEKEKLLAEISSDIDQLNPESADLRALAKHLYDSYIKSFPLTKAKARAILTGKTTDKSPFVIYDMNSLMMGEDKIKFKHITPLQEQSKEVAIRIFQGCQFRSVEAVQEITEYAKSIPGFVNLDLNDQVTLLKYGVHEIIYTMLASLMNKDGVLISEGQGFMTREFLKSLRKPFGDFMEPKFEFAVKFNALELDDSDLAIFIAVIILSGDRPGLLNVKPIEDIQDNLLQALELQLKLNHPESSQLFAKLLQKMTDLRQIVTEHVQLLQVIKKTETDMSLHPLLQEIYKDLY
- protocol: Agonist activity at human PPARgamma expressed in CV1 cells by transactivation assay
measured attribute: pEC50
pEC50 is a log-scale quantity: -log10 of the concentration expressed in molar.

Please review the entries below; each comes with its answer.
>  <compound>
CCc1oc(-c2ccc(C)cc2)nc1CCCC[C@H]1CO[C@@](C)(C(=O)O)OC1

>  <tested target>
Peroxisome proliferator-activated receptor gamma (Homo sapiens)

>  <pEC50>
5.00

$$$$
>  <compound>
CC(C)(Oc1ccc(CCNC(=O)c2ccc(Cl)cc2)cc1)C(=O)O [BEZAFIBRATE]

>  <tested target>
Peroxisome proliferator-activated receptor gamma (Homo sapiens)

>  <pEC50>
5.52

$$$$
>  <compound>
Cc1ccc(-c2nc(CCCC[C@H]3CO[C@@](C)(C(=O)O)OC3)c(C)o2)cc1

>  <tested target>
Peroxisome proliferator-activated receptor gamma (Homo sapiens)

>  <pEC50>
5.02

$$$$
>  <compound>
CCc1ccc(-c2nc(CCCC[C@H]3CO[C@@](C)(C(=O)O)OC3)c(C)o2)cc1

>  <tested target>
Peroxisome proliferator-activated receptor gamma (Homo sapiens)

>  <pEC50>
5.52

$$$$
>  <compound>
Cc1oc(-c2ccccc2)nc1CCCC[C@H]1CO[C@@](C)(C(=O)O)OC1

>  <tested target>
Peroxisome proliferator-activated receptor gamma (Homo sapiens)

>  <pEC50>
4.00

$$$$

For the next question, use this compound.
Note down pEC50 recorded for `Cc1ccc(-c2nc(CCCC[C@H]3CO[C@@](C)(C(=O)O)OC3)c(C(F)(F)F)o2)cc1`
5.52
